Value source: patent US10710993B2

For each entry below, report its GI50 value.
molecular target: TEL-ALK-G1202R-BaF3 (Homo sapiens, UniProt Q9UM73, G1202R, cells depend on it); construct: fused on or other part: TEL (ETV6) N-terminal oligomerising part fused before the ALK intracellular/kinase part; P41212 (Transcription factor ETV6); assay: Cell proliferation experiment (Cell-Titer GLO), TEL-ALK-G1202R-BaF3; type: cell-based; details: 72 h, read-out: IC50 TEL-ALK G1202R-BaF3
Sequence (Q9UM73 whole entry G1202R, the tested form may be a part): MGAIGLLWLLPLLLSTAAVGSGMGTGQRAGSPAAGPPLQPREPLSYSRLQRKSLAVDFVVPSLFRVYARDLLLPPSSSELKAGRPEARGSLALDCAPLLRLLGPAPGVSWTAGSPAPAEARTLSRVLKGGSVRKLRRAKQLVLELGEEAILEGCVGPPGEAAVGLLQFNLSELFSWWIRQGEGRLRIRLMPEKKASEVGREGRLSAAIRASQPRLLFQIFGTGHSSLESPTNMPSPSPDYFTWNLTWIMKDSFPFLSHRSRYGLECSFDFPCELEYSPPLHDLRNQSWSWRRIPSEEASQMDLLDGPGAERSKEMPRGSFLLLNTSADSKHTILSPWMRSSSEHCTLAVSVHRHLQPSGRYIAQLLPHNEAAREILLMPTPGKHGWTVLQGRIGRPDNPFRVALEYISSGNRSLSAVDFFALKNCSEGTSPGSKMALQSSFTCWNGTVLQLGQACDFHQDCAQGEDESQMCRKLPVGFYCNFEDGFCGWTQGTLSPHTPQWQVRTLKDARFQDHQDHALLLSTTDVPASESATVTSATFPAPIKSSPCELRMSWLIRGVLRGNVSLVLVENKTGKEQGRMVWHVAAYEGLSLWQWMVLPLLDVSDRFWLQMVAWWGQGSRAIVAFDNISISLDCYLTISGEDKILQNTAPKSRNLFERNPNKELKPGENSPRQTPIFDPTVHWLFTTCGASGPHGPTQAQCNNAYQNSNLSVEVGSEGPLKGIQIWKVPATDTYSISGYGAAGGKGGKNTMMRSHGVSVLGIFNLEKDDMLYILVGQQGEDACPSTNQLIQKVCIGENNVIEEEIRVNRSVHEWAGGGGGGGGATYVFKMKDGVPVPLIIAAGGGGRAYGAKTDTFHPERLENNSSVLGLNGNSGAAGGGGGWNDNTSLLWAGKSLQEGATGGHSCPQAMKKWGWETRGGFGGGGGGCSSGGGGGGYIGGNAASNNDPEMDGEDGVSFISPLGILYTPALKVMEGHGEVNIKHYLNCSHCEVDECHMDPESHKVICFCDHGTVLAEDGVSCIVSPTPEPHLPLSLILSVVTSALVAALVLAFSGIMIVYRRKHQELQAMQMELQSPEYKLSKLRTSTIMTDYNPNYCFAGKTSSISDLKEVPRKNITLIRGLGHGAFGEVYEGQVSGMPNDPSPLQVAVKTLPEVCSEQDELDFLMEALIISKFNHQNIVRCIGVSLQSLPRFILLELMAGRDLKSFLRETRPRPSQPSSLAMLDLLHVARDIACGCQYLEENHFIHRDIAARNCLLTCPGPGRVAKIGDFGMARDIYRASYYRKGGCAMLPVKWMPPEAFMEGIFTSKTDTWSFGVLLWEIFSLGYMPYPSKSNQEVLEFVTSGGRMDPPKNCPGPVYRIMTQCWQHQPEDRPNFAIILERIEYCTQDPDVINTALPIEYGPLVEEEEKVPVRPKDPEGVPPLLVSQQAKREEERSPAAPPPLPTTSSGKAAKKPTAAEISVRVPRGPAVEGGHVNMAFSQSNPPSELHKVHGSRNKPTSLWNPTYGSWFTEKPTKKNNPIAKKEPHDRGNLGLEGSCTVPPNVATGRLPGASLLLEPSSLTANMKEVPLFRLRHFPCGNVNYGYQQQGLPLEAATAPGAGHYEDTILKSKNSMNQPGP

**Q:** Quick one: GI50 for Cc1cc(Nc2nc(Nc3cn(C)nc3S(=O)(=O)C(C)C)c3sccc3n2)c2c(c1C1CCNCC1)C[C@@H](C)O2 ?
**A:** > 180 nM

**Q:** Quick one: GI50 for Cc1cc(Nc2ncc(Cl)c(Nc3cn(C)nc3S(=O)(=O)C(C)C)n2)c2c(c1C1CCN(C(C)C)CC1)C[C@@H](C)O2 ?
**A:** > 180 nM

**Q:** Quick one: GI50 for Cc1cc(Nc2ncc(C(F)(F)F)c(Nc3cn(C)nc3S(=O)(=O)C(C)C)n2)c2c(c1C1CCN(C)CC1)C[C@@H](C)O2 ?
**A:** < 50 nM

---

Target: TEL-ALK-F1174L-BaF3 (Homo sapiens, UniProt Q9UM73, F1174L, cells depend on it)
Construct: fused on or other part: TEL (ETV6) N-terminal oligomerising part fused before the ALK intracellular/kinase part; P41212 (Transcription factor ETV6)
Sequence (Q9UM73 whole entry F1174L, the tested form may be a part): as the sequence (Q9UM73 whole entry G1202R, the tested form may be a part) above, with F1174L, R1202G counted along it
Experiment: Cell proliferation experiment (Cell-Titer GLO), TEL-ALK-F1174L-BaF3
Type: cell-based
Settings: 72 h, read-out: IC50 TEL-ALK F1174L-BaF3
Protocol: Compounds to be tested: Positive compound Ceritinib and the compounds obtained by the examples of the present invention. […] Method: Cells were seeded in 96-well plates for 24 h in growth media containing 10% fetalbovine serum (FBS) and cultured overnight at 37° C. […] IC50 values were calculated by concentration-response curve fitting using a four-parameter analytical method with Graphpad 6.0. […]
Reported endpoint: GI50

**Q:** For TEL-ALK-F1174L-BaF3 (Homo sapiens, UniProt Q9UM73, F1174L, cells depend on it), provide GI50 of Cc1cc(Nc2ncc(Cl)c(Nc3cn(C4CC4)nc3S(=O)(=O)CC(C)C)n2)c2c(c1C1CCN(C)CC1)C[C@@H](C)O2 please.
**A:** 23.7 nM

**Q:** For TEL-ALK-F1174L-BaF3 (Homo sapiens, UniProt Q9UM73, F1174L, cells depend on it), provide GI50 of CCn1cc(Nc2nc(Nc3cc(C)c(C4CCNCC4)c4c3O[C@H](C)C4)ncc2Cl)c(S(=O)(=O)C(C)C)n1 please.
**A:** 33.4 nM

**Q:** For TEL-ALK-F1174L-BaF3 (Homo sapiens, UniProt Q9UM73, F1174L, cells depend on it), provide GI50 of Cc1cc(Nc2ncc(Cl)c(Nc3cn(C)nc3S(=O)(=O)C(C)C)n2)c2c(c1C1CCNCC1)C[C@@H](C)O2 [REX-D1] please.
**A:** < 10 nM

**Q:** For TEL-ALK-F1174L-BaF3 (Homo sapiens, UniProt Q9UM73, F1174L, cells depend on it), provide GI50 of Cc1cc(Nc2ncc(Cl)c(Nc3cn(C)nc3S(=O)(=O)C(C)C)n2)c2c(c1C1CCNCC1)CCC(C)O2 (stereo not shown) please.
**A:** 32.6 nM
